Let's go through some pIC50 measurements on Mtx TPP (Mycobacterium triplex) together.
Sequence (A0A024JUE5 1-354): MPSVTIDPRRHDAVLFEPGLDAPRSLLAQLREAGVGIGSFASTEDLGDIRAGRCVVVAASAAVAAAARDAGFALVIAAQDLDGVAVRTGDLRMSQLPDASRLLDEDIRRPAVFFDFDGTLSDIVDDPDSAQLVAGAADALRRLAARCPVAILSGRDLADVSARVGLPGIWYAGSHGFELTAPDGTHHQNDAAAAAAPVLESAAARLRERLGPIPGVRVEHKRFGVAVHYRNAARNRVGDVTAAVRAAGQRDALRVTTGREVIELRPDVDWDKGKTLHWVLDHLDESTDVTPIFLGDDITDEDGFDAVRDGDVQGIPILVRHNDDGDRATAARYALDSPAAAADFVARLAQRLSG
The read-out pIC50 is expressed as -log10 of concentration in moles per litre.

> print(dat)
                                smiles.data  recorded.endpoint  quantitative.result
1  O=P(O)(O)C[C@H]1O[C@H](O[C@H]2O[C@H](CO)[C@@H](O)[C@H](O)[C@H]2O)[C@H](O)[C@@H](O)[C@@H]1O              pIC50                 3.54

In: Quick one: pIC50 of O=P(O)(O)CC[C@H]1O[C@H](O[C@H]2O[C@H](CO)[C@@H](O)[C@H](O)[C@H]2O)[C@H](O)[C@@H](O)[C@@H]1O ?
Out: 2.71
